target: Vasopressin 1 (Vl) receptor (Rattus norvegicus)
Sequence (P30560 whole entry): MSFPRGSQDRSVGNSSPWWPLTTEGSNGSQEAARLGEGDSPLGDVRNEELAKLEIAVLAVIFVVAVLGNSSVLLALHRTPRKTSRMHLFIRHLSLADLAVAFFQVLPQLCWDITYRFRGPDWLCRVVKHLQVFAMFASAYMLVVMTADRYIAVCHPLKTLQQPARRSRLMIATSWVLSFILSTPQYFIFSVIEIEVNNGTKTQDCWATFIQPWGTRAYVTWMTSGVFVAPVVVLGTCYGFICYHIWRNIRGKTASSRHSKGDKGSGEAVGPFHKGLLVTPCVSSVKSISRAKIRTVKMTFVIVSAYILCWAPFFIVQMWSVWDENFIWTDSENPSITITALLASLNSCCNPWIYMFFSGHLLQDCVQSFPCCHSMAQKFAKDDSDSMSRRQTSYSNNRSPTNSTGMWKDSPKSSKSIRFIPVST
outcome_measure: pIC50
Hey, just a heads up that pIC50 is the negative log base 10 of the concentration in molar.

Prompt: Give reported pIC50 for Cc1ccc(-c2ccccc2C(=O)Nc2ccc(C(=O)N3CCCCc4ccccc43)cc2)cc1 [2-2)] (Vasopressin 1 (Vl) receptor (Rattus norvegicus))
Response: 8.41

---

biological target: Vasopressin 2 (V2) receptor (Rattus norvegicus, UniProt Q00788)
Sequence (Q00788 whole entry): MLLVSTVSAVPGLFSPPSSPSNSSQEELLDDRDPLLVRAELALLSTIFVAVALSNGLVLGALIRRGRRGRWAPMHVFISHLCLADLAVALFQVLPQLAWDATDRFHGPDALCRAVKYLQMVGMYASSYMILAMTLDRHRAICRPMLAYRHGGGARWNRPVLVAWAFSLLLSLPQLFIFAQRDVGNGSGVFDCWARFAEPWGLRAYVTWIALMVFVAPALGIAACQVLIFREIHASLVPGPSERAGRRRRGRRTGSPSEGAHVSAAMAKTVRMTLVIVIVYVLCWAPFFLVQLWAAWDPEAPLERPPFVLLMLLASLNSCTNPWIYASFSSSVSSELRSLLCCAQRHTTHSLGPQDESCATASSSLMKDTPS
outcome_measure: IC50 (nM)
The response must be a number in nM with no trailing unit.

Prompt: Retrieve IC50 measured for "Cc1ccc(-c2ccccc2C(=O)Nc2ccc(C(=O)N3CCC(=O)N(CC(=O)N4CCN(C)CC4)c4ccccc43)cc2)c(C)c1" and print it.
Response: 2.3
